Measured values drawn from patent EP4310072A1 for this set.

Particle size distribution d(0.1) (integer) listing for selected molecules.
# test: Particle size testing by laser diffraction (Malvern MS2000 laser particle size analyzer, dispersant water)
# Format: physicochemical
# assay-setup: rounded to integer, Tables 14 and 16; in µm
quantity-name: Particle size distribution d(0.1) (integer)

| molecule | reported-measurement |
| --- | --- |
| CCCCCCOC(=O)c1ccccc1C(=O)c1ccc(N(CC)CC)cc1O [Comparative Example 1] | 11 |
| CCCCCCOC(=O)c1ccccc1C(=O)c1ccc(N(CC)CC)cc1O [Example 4] | 11 |
| CCCCCCOC(=O)c1ccccc1C(=O)c1ccc(N(CC)CC)cc1O [Example 5] | 10 |
| CCCCCCOC(=O)c1ccccc1C(=O)c1ccc(N(CC)CC)cc1O [Example 3] | 10 |
| CCCCCCOC(=O)c1ccccc1C(=O)c1ccc(N(CC)CC)cc1O [Example 2] | 10 |

###

# test: Second dissolution experiment: sample stirred into the oil phase of an SPF 25 sunscreen oil, 6% DHHB
# Assay type: physicochemical
# assay-setup: added concentration 6%, 25°C, stirring rate 150 r/min, oil phase

| compound | Sample dissolution time |
| --- | --- |
| CCCCCCOC(=O)c1ccccc1C(=O)c1ccc(N(CC)CC)cc1O [Example 5] | < 5 min |
| CCCCCCOC(=O)c1ccccc1C(=O)c1ccc(N(CC)CC)cc1O [Example 3] | < 5 min |
| CCCCCCOC(=O)c1ccccc1C(=O)c1ccc(N(CC)CC)cc1O [Comparative Example 2, reference compound] | 202 min |
| CCCCCCOC(=O)c1ccccc1C(=O)c1ccc(N(CC)CC)cc1O [Example 2] | < 5 min |
| CCCCCCOC(=O)c1ccccc1C(=O)c1ccc(N(CC)CC)cc1O [Example 4] | < 5 min |
| CCCCCCOC(=O)c1ccccc1C(=O)c1ccc(N(CC)CC)cc1O [Comparative Example 1] | 208 min |

###

# test: Particle size testing by laser diffraction (Malvern MS2000 laser particle size analyzer, dispersant water)
# Assay type: physicochemical
# assay-setup: laser diffraction, dispersant water
# Description: The particle size distribution and characteristics of the ultraviolet absorber described herein, such as the minimum particle size d(0.1), the d(0.9) and the consistency are determined by a laser diffraction method, and determination conditions are as follows: • particle size analyzer: Malvern MS2000 laser particle size analyzer; • name of an injector: Hydro 2000MU (A); • analysis mode: general; • particle size range: 0.02-2000 µm; • name of a dispersant: water.
Catalogue of Consistency readings, one per entry.

| molecule | Consistency |
| --- | --- |
| CCCCCCOC(=O)c1ccccc1C(=O)c1ccc(N(CC)CC)cc1O [Example 2] | 0.578 |
| CCCCCCOC(=O)c1ccccc1C(=O)c1ccc(N(CC)CC)cc1O [Example 3] | 0.691 |
| CCCCCCOC(=O)c1ccccc1C(=O)c1ccc(N(CC)CC)cc1O [Example 1] | 0.638 |
| CCCCCCOC(=O)c1ccccc1C(=O)c1ccc(N(CC)CC)cc1O [Comparative Example 1] | 2.44 |
| CCCCCCOC(=O)c1ccccc1C(=O)c1ccc(N(CC)CC)cc1O [Example 5] | 0.596 |
| CCCCCCOC(=O)c1ccccc1C(=O)c1ccc(N(CC)CC)cc1O [Example 4] | 0.62 |

###

Listed here: items and their measured αd10.
# test: Particle size testing by laser diffraction (Malvern MS2000 laser particle size analyzer, dispersant water)
# Format: physicochemical
# assay-setup: Vd10/Vd100, distribution coefficient of 10 µm particles
quantity-name: αd10

| compound | quantity-name | reported-measurement |
| --- | --- | --- |
| CCCCCCOC(=O)c1ccccc1C(=O)c1ccc(N(CC)CC)cc1O [Example 1] | αd10 | 0.111 |
| CCCCCCOC(=O)c1ccccc1C(=O)c1ccc(N(CC)CC)cc1O [Comparative Example 1] | αd10 | 0.122 |
| CCCCCCOC(=O)c1ccccc1C(=O)c1ccc(N(CC)CC)cc1O [Example 5] | αd10 | 0.095 |
| CCCCCCOC(=O)c1ccccc1C(=O)c1ccc(N(CC)CC)cc1O [Example 3] | αd10 | 0.107 |
| CCCCCCOC(=O)c1ccccc1C(=O)c1ccc(N(CC)CC)cc1O [Example 4] | αd10 | 0.074 |
| CCCCCCOC(=O)c1ccccc1C(=O)c1ccc(N(CC)CC)cc1O [Example 2] | αd10 | 0.104 |

###

# test: Particle size testing by laser diffraction (Malvern MS2000 laser particle size analyzer, dispersant water)
# Format: physicochemical
# assay-setup: laser diffraction, dispersant water
Label true when Span (β) >= 2; otherwise false.

| molecule | assigned-label |
| --- | --- |
| CCCCCCOC(=O)c1ccccc1C(=O)c1ccc(N(CC)CC)cc1O [Example 2] | false |
| CCCCCCOC(=O)c1ccccc1C(=O)c1ccc(N(CC)CC)cc1O [Example 3] | true |
| CCCCCCOC(=O)c1ccccc1C(=O)c1ccc(N(CC)CC)cc1O [Comparative Example 1] | true |

###

# test: Particle size testing by laser diffraction (Malvern MS2000 laser particle size analyzer, dispersant water)
# Type: physicochemical
# assay-setup: rounded to integer, Tables 14 and 16
quantity-name: Particle size distribution d(0.9) (integer) (µm)

| compound | reported-measurement |
| --- | --- |
| CCCCCCOC(=O)c1ccccc1C(=O)c1ccc(N(CC)CC)cc1O [Example 3] | 78 |
| CCCCCCOC(=O)c1ccccc1C(=O)c1ccc(N(CC)CC)cc1O [Example 2] | 52 |
| CCCCCCOC(=O)c1ccccc1C(=O)c1ccc(N(CC)CC)cc1O [Example 5] | 43 |
| CCCCCCOC(=O)c1ccccc1C(=O)c1ccc(N(CC)CC)cc1O [Example 4] | 63 |
| CCCCCCOC(=O)c1ccccc1C(=O)c1ccc(N(CC)CC)cc1O [Comparative Example 2, reference compound] | 1000 |
| CCCCCCOC(=O)c1ccccc1C(=O)c1ccc(N(CC)CC)cc1O [Comparative Example 1] | 519 |
| CCCCCCOC(=O)c1ccccc1C(=O)c1ccc(N(CC)CC)cc1O [Example 1] | 58 |

###

molecules and their reported αd5
# test: Particle size testing by laser diffraction (Malvern MS2000 laser particle size analyzer, dispersant water)
# Assay type: physicochemical
# assay-setup: Vd5/Vd100, distribution coefficient of particles with a particle size of 5 µm

| molecule | αd5 |
| --- | --- |
| CCCCCCOC(=O)c1ccccc1C(=O)c1ccc(N(CC)CC)cc1O [Example 1] | 0.0160 |
| CCCCCCOC(=O)c1ccccc1C(=O)c1ccc(N(CC)CC)cc1O [Example 2] | 0.006 |
| CCCCCCOC(=O)c1ccccc1C(=O)c1ccc(N(CC)CC)cc1O [Example 4] | 0.002 |
| CCCCCCOC(=O)c1ccccc1C(=O)c1ccc(N(CC)CC)cc1O [Example 3] | 0.019 |
| CCCCCCOC(=O)c1ccccc1C(=O)c1ccc(N(CC)CC)cc1O [Example 5] | 0.037 |
| CCCCCCOC(=O)c1ccccc1C(=O)c1ccc(N(CC)CC)cc1O [Comparative Example 1] | 0.005 |

###

# test: Particle size testing by laser diffraction (Malvern MS2000 laser particle size analyzer, dispersant water)
# Type: physicochemical
# assay-setup: median particle size, cumulative distribution 50%
Below, each of the compounds is paired with its reported d(0.5) value.

| compound | d(0.5) / µm |
| --- | --- |
| CCCCCCOC(=O)c1ccccc1C(=O)c1ccc(N(CC)CC)cc1O [Example 1] | 23.866 |
| CCCCCCOC(=O)c1ccccc1C(=O)c1ccc(N(CC)CC)cc1O [Example 3] | 30.410 |
| CCCCCCOC(=O)c1ccccc1C(=O)c1ccc(N(CC)CC)cc1O [Example 5] | 21.390 |
| CCCCCCOC(=O)c1ccccc1C(=O)c1ccc(N(CC)CC)cc1O [Comparative Example 1] | 51.970 |
| CCCCCCOC(=O)c1ccccc1C(=O)c1ccc(N(CC)CC)cc1O [Example 4] | 25.939 |
| CCCCCCOC(=O)c1ccccc1C(=O)c1ccc(N(CC)CC)cc1O [Example 2] | 22.470 |

###

# test: Particle size testing by laser diffraction (Malvern MS2000 laser particle size analyzer, dispersant water)
# Assay type: physicochemical
# assay-setup: minimum particle size, cumulative distribution 10%
# Method: The particle size distribution and characteristics of the ultraviolet absorber described herein, such as the minimum particle size d(0.1), the d(0.9) and the consistency are determined by a laser diffraction method, and determination conditions are as follows: • particle size analyzer: Malvern MS2000 laser particle size analyzer; • name of an injector: Hydro 2000MU (A); • analysis mode: general; • particle size range: 0.02-2000 µm; • name of a dispersant: water.

| compound | d(0.1) / µm |
| --- | --- |
| CCCCCCOC(=O)c1ccccc1C(=O)c1ccc(N(CC)CC)cc1O [Example 5] | 10.747 |
| CCCCCCOC(=O)c1ccccc1C(=O)c1ccc(N(CC)CC)cc1O [Example 2] | 9.862 |
| CCCCCCOC(=O)c1ccccc1C(=O)c1ccc(N(CC)CC)cc1O [Example 3] | 9.803 |
| CCCCCCOC(=O)c1ccccc1C(=O)c1ccc(N(CC)CC)cc1O [Example 1] | 9.647 |
| CCCCCCOC(=O)c1ccccc1C(=O)c1ccc(N(CC)CC)cc1O [Comparative Example 1] | 10.517 |
| CCCCCCOC(=O)c1ccccc1C(=O)c1ccc(N(CC)CC)cc1O [Example 4] | 11.066 |
